Tested on: velvetleaf (Abutilon theophrasti)
assay procedure: Test G Post-Emergence Protocol
Assay type: in vivo
protocol conditions: Abutilon theophrasti, post-emergence, 312 h, 250 g ai/ha, evaluated after 13 days, 100=total damage to plant, 0=no damage to plant, read-out: Velvetleaf damage rating
Lab note: compare pest or weed control at 250 g/ha against 20%. Equal or greater, write true. Smaller, write false.

- CN1C[C@H](c2cccc(Cl)c2)[C@@H](C(=O)Nc2cnccc2C(F)(F)F)C1=O (racemic): true
- CCOc1cc([C@@H]2CN(C)C(=O)[C@H]2C(=O)Nc2cccc(F)c2F)cc(C(F)(F)F)n1 (racemic): true
- Cc1c(F)ccc(NC(=O)[C@@H]2C(=O)N(C)C[C@H]2c2ccc(C(F)(F)F)cc2)c1Cl (racemic): false
- CN1C[C@@H](c2ccc(C(F)(F)F)cc2)[C@H](C(=O)Nc2n[nH]cc2Cl)C1=O (racemic): false
- CN1C[C@H](c2cc(Cl)cc(C(F)(F)F)c2)[C@@H](C(=O)Nc2ccccc2S(C)(=O)=O)C1=O (racemic): true
- CN1C[C@H](c2ccc(C(F)(F)F)cc2)[C@@H](C(=O)Nc2cccc(Cl)c2S(C)(=O)=O)C1=O (racemic): false
- Cc1nc(F)ccc1NC(=O)[C@@H]1C(=O)N(C)C[C@H]1c1ccc(C(F)(F)F)cc1 (racemic): true
- Cc1ccc(C2CN(C)C(=O)C2C(=O)Nc2cccc(F)c2F)cc1C#N (centres unmarked): true
- COc1ccc(C2CN(C)C(=O)C2C(=O)Nc2cccc(F)c2F)cc1C (centres unmarked): false
- Cc1c[nH]nc1NC(=O)[C@@H]1C(=O)N(C)C[C@H]1c1ccc(C(F)(F)F)cc1 (racemic): false

---

Test system: morningglory (Ipomoea coccinea)
assay procedure: Test C preemergence
Assay type: in vivo
protocol conditions: 62 g ai/ha, scale 0 to 100, 0 no effect, 100 complete control
Lab note: compare Plant response rating, Morningglory against 10. Equal or greater, write 1 (yes). Smaller, write 0 (no).

* CN1CC(c2ccc(C(F)(F)F)c(F)c2)C(C(=O)Nc2ccccc2S(C)(=O)=O)C1=O (stereo not drawn) | 1 (yes)
* CN1CC(c2cccc(C(F)(F)F)c2)C(C(=O)Nc2ccccc2S(C)(=O)=O)C1=O (stereo not drawn) | 1 (yes)
* CN1CC(c2ccc(C(C)(F)F)cc2)C(C(=O)Nc2ccccc2F)C1=O (stereo not drawn) | 1 (yes)
* CN1CC(c2cccc(OC(F)F)c2)C(C(=O)Nc2ccccc2F)C1=O (stereo not drawn) | 0 (no)

---

Tested on: giant foxtail (Setaria faberi)
assay procedure: Test G Pre-Emergence Protocol
Type: in vivo
protocol conditions: Setaria faberi, pre-emergence, 312 h, 250 g ai/ha, evaluated after 13 days, read-out: Foxtail, Giant damage rating (100=total damage to plant; 0=no damage to plant)
The following molecules are shown together with reported pest or weed control at 250 g/ha values.
value kind: pest or weed control at 250 g/ha (%)

- COc1c(C)cc(C2CN(C)C(=O)C2C(=O)Nc2cccc(F)c2F)cc1C (stereo not shown) [Compound 1707]: 90
- Cc1cc(C2CN(C)C(=O)C2C(=O)Nc2cccc(F)c2F)cc(C)c1Cl (stereo not shown) [Compound 1700]: 90
- CN1C[C@@H](c2ccc(C(F)(F)F)cc2)[C@H](C(=O)Nc2ccc(F)c(F)c2Cl)C1=O (racemic) [Compound 1627]: 80
- Cc1c[nH]nc1NC(=O)[C@@H]1C(=O)N(C)C[C@H]1c1ccc(C(F)(F)F)cc1 (racemic) [Compound 1660]: 0
- CN1C[C@@H](c2ccc(C(F)(F)F)cc2)[C@H](C(=O)Nc2cncc(Cl)n2)C1=O (racemic) [Compound 1574]: 70
- CN1C[C@H](c2ccc(C(F)(F)F)cc2)[C@@H](C(=O)Nc2cccnc2[N+](=O)[O-])C1=O (racemic) [Compound 1824]: 80
- CN1C[C@@H](c2ccc(C(F)(F)F)cc2)[C@H](C(=O)Nc2cc(F)nc(F)c2)C1=O (racemic) [Compound 1515]: 0
